Listing of entries alongside the reported RU.
# SYSTEM_NAME: gEgI WT: HSV2 gEgI heterodimer comprising gE and gI wildtype ectodomains (HSV2, UniProt P89475 21-416; P06764 21-256)
# EXPERIMENTAL_DETAILS: SPR binning; gEgI captured by mAb 15
Numeric answer plus unit only.

Previously resolved entries follow.
BINDER: mAb clone 19 (antibody, V domains shown) VH: QVQLQQSGAELVRPGVSVKISCKGSGYTFTDYAMHWVKQSHAKSLEWIGVISTYYGDARYNQKFKGKATMTVDKSSSTAYMELARLTSEDSAIYYCARRGITVVADYAMDYWGQGTSVTVSS VL: QIVLTQSPAIMSASPGEKVTMSCSASSSVTYMHWYQQKSGTSPKRWIYDTSKLASGVPARFSGSGSGTSYSLTISSMEAEDAATYYCQQWSSNPPTFGGGTKLEIK
RU: 23 RU

BINDER: mAb clone 15 (antibody, V domains shown) VH: QVQLKESGPGLVAPSQSLSITCTVSGFSLTSYGVSWVRQPPGKGLEWLGVIWGDGSTNYHSALISRLSISKDNSKSQVFLKLNSLQTDDTATYYCAKPDLYYDSPYAMDYWGQGTSVTVSS VL: DIQMTQSPASLSASVGETVTITCRASGNIHNYLAWYQQKQGKSPQLLVYNAKTLADGVPSRFSGSGSGTQYSLKINSLQPEDFGSYYCQHFWSTPWTFGGGTKLEIK
RU: -4.9 RU

BINDER: mAb clone 24 (antibody, V domains shown) VH: EVQLQQSGPELVKPGASVKMSCKASGYTFTDYYMKWVKQSHGKSLEWIGDINPNNGDTFYNQKFKGKATLTVDKSSSTAYMQLNSLTSEDSAVYYCARRGFYYYGSRGGIMDYWGQGTSVTVSS VL: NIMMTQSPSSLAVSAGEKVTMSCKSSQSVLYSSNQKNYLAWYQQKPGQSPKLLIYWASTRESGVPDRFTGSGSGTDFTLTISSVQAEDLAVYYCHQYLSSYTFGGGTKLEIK
RU: 42.6 RU

BINDER: mAb clone 34 (antibody, V domains shown) VH: EVKLVESGGGLVQPGGSLKLSCATSGFTFSDYYMYWVRQTPEKRLEWVAYISNGGDSTYYPDTVKGRFTISRDNAKNTLYLQMSRLKSEDTAMYYCARSYYGNPFPYWGQGTLVTVSA VL: ENVLTQSPAIMSASPGEKVTMTCRASSSVSSSYLHWYQQKSGASPKLWIYSTSNLASGVPARFSGSGSGTSYSLTISSVEAEDAATYYCQQYSGYPLTFGAGTKLELK
RU: -2.7 RU

BINDER: mAb clone 20 (antibody, V domains shown) VH: QVQLQQSGAELVRPGTSVKVSCKASGYAFTNYLIEWVKQRPGQGLEWIGVINPGSGGTNYNEKFKGKATLTADKSSSTAYMQLSSLTSDDSAVYFCARSHYGNYYAMDYWGQGTSVTVSS VL: NIVLTQSPASLAVSLGQRATISCRASESVDSYGNSFMHWYQQKPGQPPKLLIYLASNLESGVPARFSGSGSRTDFTLTIDPVEADDAATYYCQQNNEDPWTFGGGTKLEIK
RU: 18.5 RU

BINDER: mAb clone 39 (antibody, V domains shown) VH: EVKLVESGGGLVQPGGSLKLSCAASGFTFSSYTMSWVRQTPEKRLEWVAYISNGGGSTYYPDTVKGRFTISRDNAKNTLYLQMSSLKSEDTAMYYCARGVSYYGDLYYFDYWGQGTTLTVSS VL: DVVVTQTPLSLPVSFGDQVSISCRSSQSLANSYGNTYLSWYLHKPGQSPQLLIYGISNRFSGVPDRFSGSGSGTDFTLKISTIKPEDLGMYYCLQGTHQPWTFGGGTKLEIK
RU: -4.8 RU

input: Would you kindly share the measured RU for mAb clone 40 (antibody, V domains shown) VH: QIQLVQSGPELKKPGETVKISCKASGYTFTNYGMNWVKQAPGKGLKWMGWINTYTGEPTYADDFKGRFAFSLETSASTAYLQINNLKNEDTATYFCARSLYGYDEGYFDVWGAGTTVTVSS VL: DIQMTQSPASLSASVGETVTITCRASGNIHNYLAWYQQKQGKSPQLLVYNAKTLADGVPSRFSGSGSGTQYSLKINSLQPEDFGSYYCQHFWSTPYTFGGGTKLEIK ?
output: -0.4 RU

input: One more binder: mAb clone 17 (antibody, V domains shown) VH: QVQLKESGPGLVAPSQSLSITCTVSGFSLTSYGVHWVRQPPGKGLEWLGVIWAGGSSNYNSALMSRLSISKDNSKSQVFLKMNSLQTDDTAMYYCARDGYGYVYYAMDYWGQGTSVTVSS VL: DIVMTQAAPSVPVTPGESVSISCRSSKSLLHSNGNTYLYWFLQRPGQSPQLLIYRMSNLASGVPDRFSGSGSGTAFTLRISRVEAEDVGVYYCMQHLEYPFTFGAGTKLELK
output: -6.7 RU
